This listing pairs compounds with measured d14 [CFU/ml].
Tested on: fungal mix (including yeasts and molds): Aspergillus brasiliensis DSM 1988, Rhodotorula mucilaginosa DSM 13621, Yarrowia lipolytica DSM 8218
Experiment: Preservative activity of a basic composition (10% PG in water, pH 7) with 2-phenoxyethanol against fungal contamination (Example 1.1)
Type: cell-based
Details: 10% PG + 0.36% PE + 0.04% Amide in water, pH 7; fungal mix inoculated at day 0, 7 and 14; 25° C.; day 14 before re-inoculation
Description: An aqueous composition of pH 7 comprising 10% by weight of propyleneglycol (PG) as organic solvent, 0.36% by weight of 2-phenoxyethanol (PE) as antimicrobial and 0.04% by weight of the amide listed in the below table was tested for its preserving activity against fungal contamination (the percentages are weight percent and relate to the total weight of the composition). […] CFU was determined before re-inoculation at days 7 and 14, and on day 21.

Here's what some known entries look like.
CCCCC(CC)CNC(=O)/C=C\C(=O)O (centres unmarked) [Maleic acid N-2-ethylhexyl-amide]: 8,500 CFU/ml
CCCCCCCCCC(=O)N(C)C [n-Decanoyl-N,N-dimethylamide]: <10 CFU/ml

# compound `CCCCCCCCCC(=O)N1CCOCC1` ; its d14 [CFU/ml] = <10 CFU/ml

# compound CCCCN(CCCC)C(=O)CC [n-Propanoyl-N,N-dibutylamide] ; its d14 [CFU/ml] = 3,750 CFU/ml

---

System: fungal mix (including yeasts and molds): Aspergillus brasiliensis DSM 1988, Rhodotorula mucilaginosa DSM 13621, Yarrowia lipolytica DSM 8218
Assay: Preservative activity of a basic composition (10% PG in water, pH 7) with 2-phenoxyethanol against fungal contamination (Example 1.1)
Format: cell-based
Details: 10% PG + 0.36% PE + 0.04% Amide in water, pH 7; fungal mix inoculated at day 0, 7 and 14; 25° C.; day 21
This listing pairs compounds with measured d21 [CFU/ml].

Here's what some known entries look like.
CCCCCCCCCC(=O)N1CCOCC1: 35 CFU/ml
CC(CC(=O)N(C)C)CC(C)(C)C (centres unmarked) [Isononanoyl-N,N-dimethylamide]: 15,000 CFU/ml
CCCCN(CCCC)C(=O)CC [n-Propanoyl-N,N-dibutylamide]: 25,000 CFU/ml
CCCCCC(CCC)C(=O)N(C)C (centres unmarked) [2-Propylheptanoyl-N,N-dimethylamide]: 8,000 CFU/ml
CCCCC(CC)CNC(=O)/C=C\C(=O)O (centres unmarked) [Maleic acid N-2-ethylhexyl-amide]: 18,500 CFU/ml

# compound CCCCCCN(CCCCCC)C(C)=O [Ethanoyl-N,N-dihexylamide] ; its d21 [CFU/ml] = 2,450 CFU/ml

# compound CCCCCCCCCC(=O)N(C)C [n-Decanoyl-N,N-dimethylamide] ; its d21 [CFU/ml] = <10 CFU/ml

# compound CCCCCCCCCCCC(=O)N(C)C [Dodecanoyl-N,N-dimethylamide] ; its d21 [CFU/ml] = 245 CFU/ml

---

This listing pairs compounds with measured d14 [CFU/ml].
System: fungal mix (including yeasts and molds): Aspergillus brasiliensis DSM 1988, Rhodotorula mucilaginosa DSM 13621, Yarrowia lipolytica DSM 8218
Assay: Preservative activity of a basic composition (10% PG in water, pH 7) with 2-phenoxyethanol against fungal contamination (Example 1.1)
Type: cell-based
Details: 10% PG + 0.36% PE + 0.04% Amide in water, pH 7; fungal mix inoculated at day 0, 7 and 14; 25° C.; day 14 before re-inoculation

CCCCCCCCCCCC(=O)N(C)C [Dodecanoyl-N,N-dimethylamide]: 170 CFU/ml

# compound CC(CC(=O)N(C)C)CC(C)(C)C (stereo not shown) [Isononanoyl-N,N-dimethylamide] ; its d14 [CFU/ml] = 3,350 CFU/ml

# compound CCCCCCN(CCCCCC)C(C)=O [Ethanoyl-N,N-dihexylamide] ; its d14 [CFU/ml] = 2,750 CFU/ml

# compound CCCCCC(CCC)C(=O)N(C)C (stereo not shown) [2-Propylheptanoyl-N,N-dimethylamide] ; its d14 [CFU/ml] = 3,250 CFU/ml

Data provenance is patent US20250040539A1.
